# test.description: T. cruzi intracellular proliferation inhibitors, primary screen, cell-based, beta-gal Tulahuen parasites, NIH3T3 host, luminescence (AID 624255)
# measurement.parameters: T. cruzi beta-gal in NIH3T3, GalScreen luminescence, 90 h; at 8.34 µM; stronger effect = higher value
Out of some 77,000 compounds screened, about 4,600 (6%) were called active. About 1% were inconclusive and are not listed. The list comes from a sample in which actives are over-represented; it also holds close analogues and randomly drawn compounds.
Quick reference for inhibition among some molecules
Write the number in % without appending the unit.

{"compound.structure.string": "O=C(Nc1cc(F)ccc1F)N1CCCCN2[C@H](CO)[C@@H](c3ccc(-c4cccnc4)cc3)[C@@H]2C1", "numeric.value": 69.1}
{"compound.structure.string": "COc1ccccc1NC(=O)N1CCCCN2[C@H](C1)[C@H](c1ccc(-c3ccccc3)cc1)[C@@H]2CO", "numeric.value": 119}
{"compound.structure.string": "CC(=O)N1CCCCN2[C@H](CO)[C@H](c3ccc(-c4ccccc4)cc3)[C@@H]2C1", "numeric.value": 72.8}

Prompt line: Please give the measured inhibition for this molecule: `COc1ccc(S(=O)(=O)Nc2ccc3c(c2)CC(=O)N([C@@H](C)CO)C[C@@H](C)[C@H](CN(C)S(=O)(=O)c2ccccc2)O3)cc1`
Response line: 0.553

Prompt line: One more molecule: `CN(C)CC(=O)N1CCCCN2[C@@H](CO)[C@H](c3ccc(-c4cccnc4)cc3)[C@@H]2C1`
Response line: 73.9

Prompt line: Further, for `O=C(Nc1ccccc1)N[C@@H]1CC[C@H](CCNS(=O)(=O)c2ccccc2F)O[C@@H]1CO` ?
Response line: -32.8

Prompt line: Lookup `O=C(Nc1cc(F)ccc1F)N1CCCCN2[C@H](C1)[C@H](c1ccc(-c3cccnc3)cc1)[C@@H]2CO`
Response line: 89.5

Prompt line: Further, for `COCC(=O)Nc1ccc2c(c1)[C@@H]1C[C@@H](CC(=O)N3CCN(C)CC3)O[C@H](CO)[C@@H]1O2` ?
Response line: -9.47

* * *

# test.description: T. cruzi intracellular proliferation inhibitors, primary screen, cell-based, beta-gal Tulahuen parasites, NIH3T3 host, luminescence (AID 624255)
# measurement.parameters: T. cruzi beta-gal in NIH3T3, GalScreen luminescence, 90 h; at 8.34 µM
Hit rate of the full screen: of about 77,000 compounds, about 4,600 (6%) were called active. Roughly 1% stayed inconclusive and do not appear here.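 Rule for the calls: active = mean inhibition above about 93%, with at least 55% of replicates each passing it (limit read from the data, passing the limit was not always enough); inconclusive = only one of those two conditions holds; inactive = neither condition holds.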 The list comes from a sample in which actives are over-represented; it also holds close analogues and randomly drawn compounds.
// one of active, inactive, no free text

{"compound": "CC=Cc1ccc2n(c1=O)C[C@@H]1[C@@H](CO)[C@H](C(=O)N3CCc4ccccc4C3)N(C(=O)C3CCC3)[C@H]21 (mixture of isomers)", "label": "inactive"}

Prompt line: What did this assay record as the result for `C/C=C/c1cnc2c(c1)C(=O)N([C@H](C)CO)C[C@H](C)[C@@H](CN(C)C(=O)Nc1ccc(C(F)(F)F)cc1)O2` ?
Response line: inactive

Prompt line: Another: `N#C[C@H]1[C@@H](c2ccc(C3=CCCCC3)cc2)[C@@H](CO)N1C(=O)NC1CCCCC1`
Response line: active

Prompt line: Same question for `COc1ccc(-c2ccc([C@H]3[C@H]4CN(C(=O)c5ccc6c(c5)OCO6)CCCCN4[C@H]3CO)cc2)cc1` please.
Response line: active

Prompt line: Another compound to check: `COCC#Cc1ccc([C@@H]2[C@@H](CO)N3CCCCN(C(=O)NC4CCCC4)C[C@H]23)cc1`
Response line: inactive

Prompt line: Repeat for the following compound: `CC(C)NC(=O)N1[C@H](C#N)[C@@H](c2ccc(-c3ccc(F)cc3)cc2)[C@H]1CO`
Response line: inactive

Prompt line: Check `O=C(C[C@H]1CC[C@H]2[C@@H](COC[C@H](O)CN2C(=O)c2ccccc2F)O1)NCc1ccccc1` too.
Response line: inactive
